- ASSAY_SYSTEM: full-length NS3/NS4A-2 (HCV NS3 protease) (Hepatitis C virus genotype 1a)
- Construct: Recombinant E. coli or Baculovirus full-length NS3 was diluted to 3.33 μM with assay buffer; made in house; host or cells: E. coli or baculovirus (BV) expression system
- TEST_DETAILS: NS3-NS4 protease assay / NS3 inhibition assay (RETS1 substrate, fluorescence kinetic read)
- Type: biochemical
- CONDITION_INFO: recombinant E. coli or Baculovirus full-length NS3 with NS4A-2; read-out: NS3-NS4 IC50
Let's look at some compounds and their measured IC50.

# annotated cases, reported IC50 shown
Measured IC50 of CC(C)(C)OC(=O)N[C@H]1CCCCC/C=C\[C@@H]2C[C@@]2(C(=O)NS(=O)(=O)c2cccc(Br)c2)NC(=O)[C@@H]2CCCN2C1=O : < 10 µM

Entry CC(C)(C)OC(=O)N[C@H]1CCCCC/C=C\[C@@H]2C[C@@]2(C(=O)NS(=O)(=O)OCCc2ccccc2)NC(=O)[C@@H]2CCCN2C1=O — recorded IC50 = < 10 µM

Lab book: IC50 of CC(C)(C)OC(=O)N[C@H]1CCCCC/C=C\[C@@H]2C[C@@]2(C(=O)NS(=O)(=O)N2CCCC2)NC(=O)[C@@H]2C[C@@H](OC(=O)N3Cc4cccc(Cl)c4C3)CN2C1=O noted as < 0.1 µM

Okay, now this compound:
Data point: CN(C)C(=O)NC(=O)[C@@]12C[C@H]1/C=C\CCCCC[C@H](NC(=O)OC(C)(C)C)C(=O)N1C[C@H](OC(=O)N3Cc4cccc(F)c4C3)C[C@H]1C(=O)N2 ; IC50 = < 0.1 µM

----------
# pIC50 per entry
- ASSAY_SYSTEM: full-length NS3/NS4A-2 (HCV NS3 protease) (Hepatitis C virus genotype 1a, UniProt P27958)
- Construct: Recombinant E. coli or Baculovirus full-length NS3 was diluted to 3.33 μM with assay buffer; made in house; host or cells: E. coli or baculovirus (BV) expression system
- Sequence (P27958 1027-1657): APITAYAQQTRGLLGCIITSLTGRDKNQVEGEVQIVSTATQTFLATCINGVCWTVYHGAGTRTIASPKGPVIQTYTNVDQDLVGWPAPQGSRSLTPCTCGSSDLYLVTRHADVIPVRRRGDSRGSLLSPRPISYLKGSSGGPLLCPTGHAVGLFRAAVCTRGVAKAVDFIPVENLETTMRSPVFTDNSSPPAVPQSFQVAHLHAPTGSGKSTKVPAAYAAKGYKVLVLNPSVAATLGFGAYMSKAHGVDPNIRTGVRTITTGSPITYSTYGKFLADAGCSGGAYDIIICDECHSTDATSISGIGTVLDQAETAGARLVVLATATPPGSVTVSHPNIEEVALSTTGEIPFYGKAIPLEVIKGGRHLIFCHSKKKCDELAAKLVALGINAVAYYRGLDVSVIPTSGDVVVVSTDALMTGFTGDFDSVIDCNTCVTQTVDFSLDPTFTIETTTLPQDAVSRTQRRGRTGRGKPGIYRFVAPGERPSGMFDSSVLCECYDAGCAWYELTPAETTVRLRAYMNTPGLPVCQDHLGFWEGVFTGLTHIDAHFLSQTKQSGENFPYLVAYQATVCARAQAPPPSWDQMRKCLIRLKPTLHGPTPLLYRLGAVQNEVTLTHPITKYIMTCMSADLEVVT
- TEST_DETAILS: NS3-NS4 protease assay / NS3 inhibition assay (RETS1 substrate, fluorescence kinetic read)
- Format: biochemical
- CONDITION_INFO: recombinant E. coli or Baculovirus full-length NS3 with NS4A-2; read-out: NS3-NS4 IC50
pIC50: −log10 of the molar value.

Note to self: pIC50 recorded for CC(C)(O)C(=O)N[C@H]1CCCCC/C=C\[C@@H]2C[C@@]2(C(=O)NS(=O)(=O)C2CC2)NC(=O)[C@@H]2C[C@@H](OC(=O)N3Cc4cccc(F)c4C3)CN2C1=O was > 7.00

// pIC50 lookup, compound = CC(C)(C)OC(=O)N[C@H]1CCCCC/C=C\[C@@H]2C[C@@]2(C(=O)NS(=O)(=O)NCCc2ccccn2)NC(=O)[C@@H]2CCCN2C1=O , result: > 5.00

Sure, the documented pIC50 for COc1cccc(NS(=O)(=O)NC(=O)[C@@]23C[C@H]2/C=C\CCCCC[C@H](NC(=O)OC(C)(C)C)C(=O)N2CCC[C@H]2C(=O)N3)c1 is > 6.00

----------
- ASSAY_SYSTEM: full-length NS3/NS4A-2 (HCV NS3 protease) (Hepatitis C virus genotype 1a)
- Construct: Recombinant E. coli or Baculovirus full-length NS3 was diluted to 3.33 μM with assay buffer; made in house; host or cells: E. coli or baculovirus (BV) expression system
- TEST_DETAILS: NS3-NS4 protease assay / NS3 inhibition assay (RETS1 substrate, fluorescence kinetic read)
- Format: biochemical
- CONDITION_INFO: recombinant E. coli or Baculovirus full-length NS3 with NS4A-2; read-out: NS3-NS4 IC50
compounds and their reported IC50

So for CC(C)(C)OC(=O)N[C@H]1CCCCC/C=C\[C@@H]2C[C@@]2(C(=O)NS(=O)(=O)C2CC2)NC(=O)[C@@H]2C[C@@H](OC(=O)N3CCc4cccc(F)c4C3)CN2C1=O [Compound 257] , the logged IC50 turned out to be < 0.1 µM

Reported IC50 ( O=C(Cc1ccc(Cl)cc1)N[C@H]1CCCCC/C=C\[C@@H]2C[C@@]2(C(=O)NS(=O)(=O)C2CC2)NC(=O)C2CCCN2C1=O (stereo partly drawn) [Compound 2143] ) = > 10 µM

// sample CC(C)(C)OC(=O)N[C@H]1CCCCC/C=C\[C@@H]2C[C@@]2(C(=O)NS(=O)(=O)N2CCCCC2c2cccnc2)NC(=O)[C@@H]2CCCN2C1=O (stereo partly drawn) [Compound 2222] , its IC50 was < 1 µM

----------
Listed here are compounds together with their documented pIC50.
- ASSAY_SYSTEM: full-length NS3/NS4A-2 (HCV NS3 protease) (Hepatitis C virus genotype 1a)
- Construct: Recombinant E. coli or Baculovirus full-length NS3 was diluted to 3.33 μM with assay buffer; made in house; host or cells: E. coli or baculovirus (BV) expression system
- TEST_DETAILS: NS3-NS4 protease assay / NS3 inhibition assay (RETS1 substrate, fluorescence kinetic read)
- Assay type: biochemical
- CONDITION_INFO: recombinant E. coli or Baculovirus full-length NS3 with NS4A-2; read-out: NS3-NS4 IC50
pIC50: −log10 of the molar value.

Entry CC(C)(C)OC(=O)N[C@H]1CCCCC/C=C\[C@@H]2C[C@@]2(C(=O)NCc2ccc(C(O)C(F)(F)F)cc2)NC(=O)[C@@H]2C[C@@H](OC(=O)N3Cc4cccc(F)c4C3)CN2C1=O (stereo partly shown) ; pIC50 = > 6.00

Others:
Entry under test: CC(C)(C)OC(=O)N[C@H]1CCNCC/C=C\[C@@H]2C[C@@]2(C(=O)NS(=O)(=O)C2CC2)NC(=O)[C@@H]2C[C@@H](OC(=O)N3Cc4cccc(F)c4C3)CN2C1=O . Its pIC50 was > 7.00

In plain terms, O=C(N[C@H]1CCCCC/C=C\[C@@H]2C[C@@]2(C(=O)NS(=O)(=O)C2CC2)NC(=O)[C@@H]2C[C@@H](OC(=O)N3Cc4ccc(OCCN5CCOCC5)cc4C3)CN2C1=O)OC1CCCC1 has a documented pIC50 of > 7.00

The value of pIC50 measured for the compound CC(C)(C)OC(=O)N[C@H]1CCCCC/C=C\[C@@H]2C[C@@]2(C(=O)N[C@@H]2CCS(=O)(=O)C2)NC(=O)[C@@H]2C[C@@H](OC(=O)N3Cc4cccc(F)c4C3)CN2C1=O turned out to be > 6.00

pIC50 recorded for this compound, CC(C)(C)OC(=O)N[C@H]1CCCCC/C=C\[C@@H]2C[C@@]2(C(=O)NS(=O)(=O)c2cccc(Cl)c2F)NC(=O)[C@@H]2CCCN2C1=O , is > 6.00

Reported pIC50 of CC[C@@H]1C[C@H]2C(=O)N[C@]3(C(=O)NS(=O)(=O)C4CC4)C[C@H]3/C=C\CCCCC[C@H](NC(=O)OC3CCCC3)C(=O)N2C1 : > 7.00

Entry CC(C)(C)OC(=O)N[C@H]1CCCCC/C=C\[C@@H]2C[C@@]2(C(=O)NS(=O)(=O)N2CCOCC2)NC(=O)[C@@H]2C[C@@H](OC(=O)N3Cc4cccc(F)c4C3)CN2C1=O , pIC50 reported as > 7.00

pIC50 reading for CNC(=O)NC(=O)[C@@]12C[C@H]1/C=C\CCCCC[C@H](NC(=O)OC(C)(C)C)C(=O)N1C[C@H](OC(=O)N3Cc4ccccc4C3)C[C@H]1C(=O)N2 [Compound 703] : > 6.00

Notebook: CC(C)N(C)S(=O)(=O)NC(=O)[C@@]12C[C@H]1/C=C\CCCCC[C@H](NC(=O)OC(C)(C)C)C(=O)N1CCC[C@H]1C(=O)N2 , pIC50 read as > 5.00

Consider Cc1ccc([S@@+]([O-])NC(=O)[C@@]23C[C@H]2/C=C\CCCCC[C@H](NC(=O)OC(C)(C)C)C(=O)N2CCC[C@H]2C(=O)N3)cc1 . Its measured pIC50 is > 6.00

----------
- ASSAY_SYSTEM: full-length NS3/NS4A-2 (HCV NS3 protease) (Hepatitis C virus genotype 1a, UniProt P27958)
- Construct: Recombinant E. coli or Baculovirus full-length NS3 was diluted to 3.33 μM with assay buffer; made in house; host or cells: E. coli or baculovirus (BV) expression system
- TEST_DETAILS: NS3-NS4 protease assay / NS3 inhibition assay (RETS1 substrate, fluorescence kinetic read)
- Format: biochemical
- CONDITION_INFO: recombinant E. coli or Baculovirus full-length NS3 with NS4A-2; read-out: NS3-NS4 IC50
pIC50: −log10 of the molar value.
MEASURED_PROPERTY: pIC50

Guide cases for pIC50, answers given:
Looking up CC(C)OC(=O)N[C@H]1CCCCC/C=C\[C@@H]2C[C@@]2(C(=O)NC#N)NC(=O)C2C[C@@H](OC(=O)N3Cc4cccc(F)c4C3)CN2C1=O (some centres unmarked) [Compound 639] , I see its pIC50 listed as > 6.00

Field pIC50 (entry O=C1N[C@]2(C(=O)NS(=O)(=O)C3CC3)C[C@H]2/C=C\CCCCC[C@H](NC2CCC2)C(=O)N2C[C@H](OC(=O)N3Cc4cccc(F)c4C3)C[C@@H]12 [Compound 907] ) reads > 7.00

Input O=C(N[C@H]1CCCCC/C=C\[C@@H]2C[C@@]2(C(=O)NC(=O)C2CC2)NC(=O)[C@@H]2C[C@@H](OC(=O)N3CCc4ccccc4C3)CN2C1=O)OC1CCCC1 [Compound 706] . Output pIC50: > 7.00

Item: CC(C)(C)OC(=O)N[C@H]1CCCCC/C=C\[C@@H]2C[C@@]2(C(=O)NCC2(O)CC2)NC(=O)[C@@H]2C[C@@H](OC(=O)N3Cc4cccc(F)c4C3)CN2C1=O [Compound 619] | pIC50: > 7.00

// below: pIC50 requested for another compound
Looking up O=C(Cc1ccccc1)N[C@H]1CCCCC/C=C\[C@@H]2C[C@@]2(C(=O)NS(=O)(=O)C2CC2)NC(=O)C2CCCN2C1=O (some centres unmarked) [Compound 2144] , I see its pIC50 listed as < 5.00
